- experimental-target: human insulin receptor (IR-A) (Homo sapiens)
- Sequence (P06213 28-746 isoform P06213-2 limits assumed): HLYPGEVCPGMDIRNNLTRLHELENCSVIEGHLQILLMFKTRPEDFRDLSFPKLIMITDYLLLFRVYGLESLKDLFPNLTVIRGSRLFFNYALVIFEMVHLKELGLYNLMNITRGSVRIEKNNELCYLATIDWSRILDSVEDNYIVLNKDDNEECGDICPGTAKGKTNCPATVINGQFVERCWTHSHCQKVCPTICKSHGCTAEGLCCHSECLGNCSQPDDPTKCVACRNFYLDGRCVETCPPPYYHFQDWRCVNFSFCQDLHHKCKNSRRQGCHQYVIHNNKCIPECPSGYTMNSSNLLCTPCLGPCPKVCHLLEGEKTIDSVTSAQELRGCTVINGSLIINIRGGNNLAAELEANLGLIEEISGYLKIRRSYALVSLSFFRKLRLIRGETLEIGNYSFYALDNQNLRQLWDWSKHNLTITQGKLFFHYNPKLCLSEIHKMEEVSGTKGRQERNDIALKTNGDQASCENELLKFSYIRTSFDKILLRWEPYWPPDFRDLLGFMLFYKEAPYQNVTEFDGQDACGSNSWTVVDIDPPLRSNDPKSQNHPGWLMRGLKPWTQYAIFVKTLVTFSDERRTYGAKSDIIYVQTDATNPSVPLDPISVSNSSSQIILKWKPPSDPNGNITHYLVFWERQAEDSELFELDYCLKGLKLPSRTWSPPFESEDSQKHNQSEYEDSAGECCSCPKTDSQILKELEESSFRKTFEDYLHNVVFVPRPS
- Sequence (P06213 763-1382 partner limits assumed): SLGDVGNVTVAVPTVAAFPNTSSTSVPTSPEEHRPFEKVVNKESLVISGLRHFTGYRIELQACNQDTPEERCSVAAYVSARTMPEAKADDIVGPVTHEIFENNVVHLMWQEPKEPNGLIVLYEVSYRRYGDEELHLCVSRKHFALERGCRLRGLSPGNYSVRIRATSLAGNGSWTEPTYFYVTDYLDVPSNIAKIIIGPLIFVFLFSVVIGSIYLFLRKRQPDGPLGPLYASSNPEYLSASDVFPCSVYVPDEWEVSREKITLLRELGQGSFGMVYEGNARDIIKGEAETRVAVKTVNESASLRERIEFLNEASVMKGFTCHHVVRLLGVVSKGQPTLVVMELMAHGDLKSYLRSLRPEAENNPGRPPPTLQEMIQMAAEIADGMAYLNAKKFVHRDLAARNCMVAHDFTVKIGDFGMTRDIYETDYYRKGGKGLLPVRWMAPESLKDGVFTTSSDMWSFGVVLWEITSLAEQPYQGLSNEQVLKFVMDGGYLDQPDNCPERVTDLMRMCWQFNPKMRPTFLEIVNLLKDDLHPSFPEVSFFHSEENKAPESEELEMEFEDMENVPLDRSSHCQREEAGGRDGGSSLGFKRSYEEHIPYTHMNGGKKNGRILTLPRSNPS
- method-summary: Insulin receptor affinity, SPA antibody capture assay, 0% HSA
- Assay type: binding
- run-parameters: relative to affinity of human insulin
Starred links: 1 amine or outer side, 2 acyl side, 3 side chain; linkers in the order of their positions; H or OH if unused. Positions of bridges follow the written chain, without caps; N, C: chain ends. Groups on a side chain read outwards from the residue. Chains are numbered I, II in the order given. No end group written: not given here. *: point of attachment. Phe(Nα-CONH2) = NC(=O)N[C@@H](Cc1ccccc1)C(=O)*; C20 diacid = O=C(O)CCCCCCCCCCCCCCCCCCC(=O)*; C18 diacid = O=C(O)CCCCCCCCCCCCCCCCC(=O)*; C16 diacid = O=C(O)CCCCCCCCCCCCCCC(=O)*; NMe2Phe = CN(C)[C@@H](Cc1ccccc1)C(=O)*; γGlu = O=C(O)[C@H](CCC(=O)[*:2])N[*:1]; Hydantoyl = NC(=O)NCC(=O)*; AEEA = NCCOCCOCC(=O)O; Me2Gly = CN(C)CC(=O)*
assay-metric: Relative IR-A affinity (@ 0% HSA) (%)
Write the value in % as a bare number.

Answered examples (3):
# substance, unit-name, Relative IR-A affinity (@ 0% HSA) (%)
rows = [
    ("I: {Phe(Nα-CONH2)}-VNQHLCGSHLVEALYLVCGERGFFYPK([γGlu-C16 diacid]) / II: Hydantoyl-IVEQCCTSICSLEQLENYCN (disulfide I:6-II:6, I:18-II:19, II:5-II:10) [Example 19]", "%", 5.0),
    ("I: {Phe(Nα-CONH2)}-VNQHLCGSHLVEALYLVCGERGFHYTPK([AEEA-AEEA-γGlu-C18 diacid]) / II: Hydantoyl-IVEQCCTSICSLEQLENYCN (disulfide I:6-II:6, I:18-II:19, II:5-II:10) [Example 12]", "%", 0.3),
    ("I: NMe2Phe-VNQHLCGSHLVEALYLVCGERGFHYPK([γGlu-C16 diacid]) / II: Me2Gly-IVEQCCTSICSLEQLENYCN (disulfide I:6-II:6, I:18-II:19, II:5-II:10) [Example 8]", "%", 2.7),
]

stdin: Param request: Relative IR-A affinity (@ 0% HSA) (%) | system human insulin receptor (IR-A) (Homo sapiens) | item I: {Phe(Nα-CONH2)}-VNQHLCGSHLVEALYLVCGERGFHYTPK([γGlu-C20 diacid]) / II: Hydantoyl-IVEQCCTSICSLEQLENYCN (disulfide I:6-II:6, I:18-II:19, II:5-II:10) [Example 14]
stdout: 0.2

----------
Recorded Duodenum degradation. Relative stability vs. A14E, B25H, desB30 human insulin for the following substances
- Test system: duodenum lumen enzymes
- method-summary: Degradation of insulin analogs using duodenum lumen enzymes
- run-parameters: degradation half time divided by that of reference insulin; rat duodenum enzymes, pH 7.4, 37° C.
Starred links: 1 amine or outer side, 2 acyl side, 3 side chain; linkers in the order of their positions; H or OH if unused. Positions of bridges follow the written chain, without caps; N, C: chain ends. Groups on a side chain read outwards from the residue. Chains are numbered I, II in the order given. No end group written: not given here. *: point of attachment. Phe(Nα-CONH2) = NC(=O)N[C@@H](Cc1ccccc1)C(=O)*; C20 diacid = O=C(O)CCCCCCCCCCCCCCCCCCC(=O)*; γGlu = O=C(O)[C@H](CCC(=O)[*:2])N[*:1]; Hydantoyl = NC(=O)NCC(=O)*; AEEA = NCCOCCOCC(=O)O
Lab note: jot the number down without any unit.

# substance, measured-result
data = [
    ("I: {Phe(Nα-CONH2)}-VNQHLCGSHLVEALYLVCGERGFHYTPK([AEEA-AEEA-γGlu-C20 diacid]) / II: Hydantoyl-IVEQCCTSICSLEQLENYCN (disulfide I:6-II:6, I:18-II:19, II:5-II:10) [Example 15]", 0.6),
]

Could you now look at the following substance, please?
stdin: Quote Duodenum degradation. Relative stability vs. A14E, B25H, desB30 human insulin reported for I: {Phe(Nα-CONH2)}-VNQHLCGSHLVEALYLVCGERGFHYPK([AEEA-AEEA-γGlu-C20 diacid]) / II: Hydantoyl-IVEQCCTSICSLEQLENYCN (disulfide I:6-II:6, I:18-II:19, II:5-II:10) [Example 28] please.
stdout: 2.1

Data origin: patent US20140315797A1
